target: FOXO1 FKH L183P (UniProt Q12778 151-265, L183P); assay: EMSA
Sequence (Q12778 151-265 L183P): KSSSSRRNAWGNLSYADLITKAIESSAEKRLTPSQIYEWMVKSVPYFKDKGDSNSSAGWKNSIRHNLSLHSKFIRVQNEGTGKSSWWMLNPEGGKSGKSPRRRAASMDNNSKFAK
quantity_name: Kd (nM)
Please reply with the bare figure in nM and do not write the unit itself.

Data request: Fill blank: measured Kd of the binder dsDBE2 (dsDNA) DNA 1: TAAGCTAGTCTTGTTTACATTTTGCTAGCAAT DNA 2: ATTGCTAGCAAAATGTAAACAAGACTAGCTTA is ____.
Data returned: 230
